# reported IC50; entries follow
biological target: PDE4B catalytic zone (PDE4Bcat) (Homo sapiens, UniProt Q07343); experiment: Phosphodiesterase 4 inhibitory activity ([3H]-cAMP, recombinant PDE4Bcat); settings: 30° C. 20 minutes, read-out: IC50 (μmol/L) PDE4
Sequence (Q07343 330-659 limits assumed): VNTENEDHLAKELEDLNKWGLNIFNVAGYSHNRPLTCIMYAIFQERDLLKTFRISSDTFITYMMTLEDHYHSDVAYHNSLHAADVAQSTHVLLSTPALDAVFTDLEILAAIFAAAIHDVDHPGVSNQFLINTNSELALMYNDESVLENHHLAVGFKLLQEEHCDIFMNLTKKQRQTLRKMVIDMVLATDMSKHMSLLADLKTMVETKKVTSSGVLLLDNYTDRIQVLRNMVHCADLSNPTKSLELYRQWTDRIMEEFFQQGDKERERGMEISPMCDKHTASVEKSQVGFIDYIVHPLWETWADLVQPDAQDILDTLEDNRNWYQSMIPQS

{"mol.smiles": "COc1ccc(-c2ccc3[nH]c(=O)ccc3c2)c2cc(C(F)(F)F)oc12", "measurement.target": "PDE4B catalytic zone (PDE4Bcat) (Homo sapiens, UniProt Q07343)", "IC50": "< 0.01 µmol/L"}
{"mol.smiles": "COc1ccc(-c2ccc3[nH]c(=O)ccc3c2)n2c(Cl)c(C(F)(F)F)nc12", "measurement.target": "PDE4B catalytic zone (PDE4Bcat) (Homo sapiens, UniProt Q07343)", "IC50": "< 0.01 µmol/L"}
{"mol.smiles": "CNc1ccc(-c2ccc3[nH]c(=O)ccc3c2)n2c(Cl)c(C(F)(F)F)nc12", "measurement.target": "PDE4B catalytic zone (PDE4Bcat) (Homo sapiens, UniProt Q07343)", "IC50": "< 0.01 µmol/L"}
{"mol.smiles": "COc1ccc(-c2ccc3c(ccc(=O)n3C)c2)c2c(Cl)c(C(F)(F)F)nn12", "measurement.target": "PDE4B catalytic zone (PDE4Bcat) (Homo sapiens, UniProt Q07343)", "IC50": "< 0.01 µmol/L"}
{"mol.smiles": "COc1ccc(-c2ccc3[nH]c(=O)ccc3c2)c2sc(C(F)(F)F)nc12", "measurement.target": "PDE4B catalytic zone (PDE4Bcat) (Homo sapiens, UniProt Q07343)", "IC50": "< 0.01 µmol/L"}
{"mol.smiles": "Nc1ccc(-c2ccc3c(=O)[nH]cc(Cl)c3c2)c2cc(C(F)(F)F)nn12", "measurement.target": "PDE4B catalytic zone (PDE4Bcat) (Homo sapiens, UniProt Q07343)", "IC50": "0.01 to 0.1 µmol/L"}
{"mol.smiles": "CCc1nc2c(OC)ccc(-c3ccc4[nH]c(=O)ccc4c3)c2o1", "measurement.target": "PDE4B catalytic zone (PDE4Bcat) (Homo sapiens, UniProt Q07343)", "IC50": "< 0.01 µmol/L"}
{"mol.smiles": "CCc1ccc2c(-c3ccc4[nH]c(=O)ccc4c3)ccc(OC)c2n1", "measurement.target": "PDE4B catalytic zone (PDE4Bcat) (Homo sapiens, UniProt Q07343)", "IC50": "0.01 to 0.1 µmol/L"}
{"mol.smiles": "CNc1ccc(-c2ccc3c(c2)CCNC3=O)c2c(Cl)c(C(F)(F)F)nn12", "measurement.target": "PDE4B catalytic zone (PDE4Bcat) (Homo sapiens, UniProt Q07343)", "IC50": "< 0.01 µmol/L"}
{"mol.smiles": "COc1ccc(-c2ccc3[nH]c(=O)ccc3c2)c2ccc(C(F)(F)F)nc12", "measurement.target": "PDE4B catalytic zone (PDE4Bcat) (Homo sapiens, UniProt Q07343)", "IC50": "0.01 to 0.1 µmol/L"}
{"mol.smiles": "COc1ccc(-c2ccc3[nH]c(=O)ccc3c2)c2cccnc12", "measurement.target": "PDE4B catalytic zone (PDE4Bcat) (Homo sapiens, UniProt Q07343)", "IC50": "0.01 to 0.1 µmol/L"}
{"mol.smiles": "COc1ccc(-c2ccc3[nH]c(=O)ccc3c2)c2nccnc12", "measurement.target": "PDE4B catalytic zone (PDE4Bcat) (Homo sapiens, UniProt Q07343)", "IC50": "< 0.01 µmol/L"}
{"mol.smiles": "COc1ccc(-c2cccc3c(=O)[nH]ccc23)c2cc(C(F)(F)F)nn12", "measurement.target": "PDE4B catalytic zone (PDE4Bcat) (Homo sapiens, UniProt Q07343)", "IC50": "0.01 to 0.1 µmol/L"}
{"mol.smiles": "COc1ccc(-c2ccc3c(c2)CCC(=O)N3C)c2c(Cl)c(C(F)(F)F)nn12", "measurement.target": "PDE4B catalytic zone (PDE4Bcat) (Homo sapiens, UniProt Q07343)", "IC50": "0.01 to 0.1 µmol/L"}
{"mol.smiles": "COc1ccc(-c2ccc3c(ccc(=O)n3C)c2)c2cc(C(F)(F)F)nn12", "measurement.target": "PDE4B catalytic zone (PDE4Bcat) (Homo sapiens, UniProt Q07343)", "IC50": "< 0.01 µmol/L"}
{"mol.smiles": "COc1ccc(-c2ccc3c(=O)[nH]cc(Cl)c3c2)c2c(Cl)c(C(F)(F)F)nn12", "measurement.target": "PDE4B catalytic zone (PDE4Bcat) (Homo sapiens, UniProt Q07343)", "IC50": "< 0.01 µmol/L"}
{"mol.smiles": "CCc1ccc2c(-c3ccc4cc[nH]c(=O)c4c3)ccc(OC)c2n1", "measurement.target": "PDE4B catalytic zone (PDE4Bcat) (Homo sapiens, UniProt Q07343)", "IC50": "0.01 to 0.1 µmol/L"}
{"mol.smiles": "COc1ccc(-c2ccc3c(c2)CC(=O)N3)c2cc(C(F)(F)F)nn12", "measurement.target": "PDE4B catalytic zone (PDE4Bcat) (Homo sapiens, UniProt Q07343)", "IC50": "0.01 to 0.1 µmol/L"}
